Tested on: crabgrass (Digitaria sanguinalis)
MEASUREMENT_NOTES: Preemergence herbicidal activity
Type: in vivo
CONDITION_SET: 17.5 g/Ha; scored after 3 weeks; 0 no injury, 100 complete kill or no germination

{"SMILES_RECORD": "COc1cc(OC)n2nc(NS(=O)(=O)c3c(OCCF)cccc3C(F)(F)F)nc2n1", "MEASURE_UNIT": "%", "Preemergence herbicidal activity DIGSA": 100}
{"SMILES_RECORD": "COc1cc(OC)n2nc(NS(=O)(=O)c3c(Cl)cccc3Cl)nc2n1", "MEASURE_UNIT": "%", "Preemergence herbicidal activity DIGSA": 98}
{"SMILES_RECORD": "COc1cc(OC)n2nc(NS(=O)(=O)c3c(OCC(F)(F)F)cccc3C(F)(F)F)nc2n1", "MEASURE_UNIT": "%", "Preemergence herbicidal activity DIGSA": 80}
{"SMILES_RECORD": "COc1cc(OC)n2nc(NS(=O)(=O)c3c(OC)cccc3C(F)(F)F)nc2n1", "MEASURE_UNIT": "%", "Preemergence herbicidal activity DIGSA": 100}
{"SMILES_RECORD": "COc1cc(OC)n2nc(NS(=O)(=O)c3c(OCC(F)F)cccc3C(F)(F)F)nc2n1", "MEASURE_UNIT": "%", "Preemergence herbicidal activity DIGSA": 85}
{"SMILES_RECORD": "COc1cc(OC)n2nc(NS(=O)(=O)c3c(C(F)(F)F)ccnc3OC)nc2n1", "MEASURE_UNIT": "%", "Preemergence herbicidal activity DIGSA": 98}
{"SMILES_RECORD": "COc1cc(OC)n2nc(NS(=O)(=O)c3c(OC(C)C)cccc3C(F)(F)F)nc2n1", "MEASURE_UNIT": "%", "Preemergence herbicidal activity DIGSA": 80}
{"SMILES_RECORD": "COc1cc(OC)n2nc(NS(=O)(=O)c3c(OC)cccc3OC)nc2n1", "MEASURE_UNIT": "%", "Preemergence herbicidal activity DIGSA": 80}
{"SMILES_RECORD": "CCOc1cccc(C(F)(F)F)c1S(=O)(=O)Nc1nc2nc(OC)cc(OC)n2n1", "MEASURE_UNIT": "%", "Preemergence herbicidal activity DIGSA": 80}
{"SMILES_RECORD": "COc1cc(OC)n2nc(NS(=O)(=O)c3c(I)ccnc3OC)nc2n1", "MEASURE_UNIT": "%", "Preemergence herbicidal activity DIGSA": 100}

* * *

Test system: giant foxtail (Setaria faberi)
MEASUREMENT_NOTES: Postemergence herbicidal activity
Assay type: in vivo
CONDITION_SET: 7.8 ppm; scored after 2 weeks; 0 no injury, 100 complete kill
Method: Seeds of the desired test plant species were planted in Grace-Sierra MetroMix® 306 planting mixture, which typically has a pH of 6.0 to 6.8 and an organic matter content of about 30 percent, in plastic pots with a surface area of 64 square centimeters. […] After 2 weeks the condition of the test plants as compared with that of the untreated plants was determined visually and scored on a scale of 0 to 100 percent where 0 corresponds to no injury and 100 corresponds to complete kill.
Reported Postemergence herbicidal activity SETFA is given for each of the following molecules.

{"SMILES_RECORD": "CCOc1cccc(C(F)(F)F)c1S(=O)(=O)Nc1nc2nc(OC)cc(OC)n2n1", "MEASURE_UNIT": "%", "Postemergence herbicidal activity SETFA": 90}
{"SMILES_RECORD": "COc1cc(OC)n2nc(NS(=O)(=O)c3c(Cl)cccc3Cl)nc2n1", "MEASURE_UNIT": "%", "Postemergence herbicidal activity SETFA": 98}
{"SMILES_RECORD": "COc1cc(OC)n2nc(NS(=O)(=O)c3c(C(F)(F)F)ccnc3OC)nc2n1", "MEASURE_UNIT": "%", "Postemergence herbicidal activity SETFA": 100}
{"SMILES_RECORD": "CCOc1ccc(C)cc1S(=O)(=O)Nc1nc2nc(OC)cc(OC)n2n1", "MEASURE_UNIT": "%", "Postemergence herbicidal activity SETFA": 80}
